- target_under_test: D3 receptor (Homo sapiens, UniProt P35462)
- Sequence (P35462 whole entry): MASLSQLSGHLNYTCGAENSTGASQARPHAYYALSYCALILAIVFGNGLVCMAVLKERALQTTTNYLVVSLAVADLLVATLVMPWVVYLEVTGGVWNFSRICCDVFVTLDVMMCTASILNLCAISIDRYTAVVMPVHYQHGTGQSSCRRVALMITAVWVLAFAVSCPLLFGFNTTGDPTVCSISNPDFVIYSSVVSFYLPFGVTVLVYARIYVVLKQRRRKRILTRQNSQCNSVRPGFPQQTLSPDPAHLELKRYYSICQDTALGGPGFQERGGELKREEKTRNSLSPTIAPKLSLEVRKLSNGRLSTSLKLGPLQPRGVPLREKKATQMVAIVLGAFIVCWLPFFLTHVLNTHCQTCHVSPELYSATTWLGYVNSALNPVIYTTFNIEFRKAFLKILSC
- protocol_details: Binding affinity at cloned human D3 receptor, [3H]YM-09151-2 (CHOp-D3 cells)
- Set-up: expressed in transfected cells; host or cells: CHOp-D3 cells
- condition_parameters: cloned human D3
measurement_label: log10 of Ki (log10 of the value in nM)
Log10 applied to Ki; unit prior to transform: nM.

| molecule | log10 of Ki |
| --- | --- |
| CCCN(CCCCN1CCN(c2ccccc2)CC1)C1CCc2ccc(O)cc2C1 (centres unmarked) [Compound 15b] | 0.54 |

Param item: C#CCN(CCN1CCN(c2ccccc2)CC1)C1CCc2ccc(O)cc2C1 (centres unmarked) [Compound 12a] ; param system: D3 receptor (Homo sapiens, UniProt P35462); output log10 of Ki: 1.37

###

- target_under_test: UniProt P21917
- Sequence (P21917 whole entry): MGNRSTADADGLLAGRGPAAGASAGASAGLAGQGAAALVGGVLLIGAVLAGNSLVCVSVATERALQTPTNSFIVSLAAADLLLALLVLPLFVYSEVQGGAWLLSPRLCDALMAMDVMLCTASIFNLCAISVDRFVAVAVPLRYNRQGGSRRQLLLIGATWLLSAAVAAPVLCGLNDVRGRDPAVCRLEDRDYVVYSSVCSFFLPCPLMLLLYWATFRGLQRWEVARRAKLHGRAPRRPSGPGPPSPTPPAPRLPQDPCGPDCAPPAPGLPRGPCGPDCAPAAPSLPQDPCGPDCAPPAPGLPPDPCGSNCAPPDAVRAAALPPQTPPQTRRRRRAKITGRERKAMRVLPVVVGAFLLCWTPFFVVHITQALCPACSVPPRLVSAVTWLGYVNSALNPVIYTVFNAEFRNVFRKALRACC
- protocol_details: Agonist potency by [3H]thymidine incorporation (mitogenesis), D4
- Format: cell-based
- Parameters: expressed in transfected cells
- condition_parameters: [3H]thymidine incorporation; >80% full agonist
measurement_label: D4 % Maxm Stim (%)
Report as a plain number; the unit % is understood.

Reference set (2 entries):
| compound | measure_unit | D4 % Maxm Stim |
| --- | --- | --- |
| CCCN(CCCCN1CCN(c2ccccc2)CC1)C1CCc2ccc(O)cc2C1 (stereo not shown) [Compound 15b] | % | 102.81 |
| O=C(NCCCCN(CCCCN1CCN(c2ccccc2)CC1)C1CCc2ccc(O)cc2C1)c1ccccc1 (stereo not shown) [Compound 10a] | % | 51.08 |

Given item C#CCN(CCCCN1CCN(c2ccccc2)CC1)C1CCc2ccc(O)cc2C1 (stereo not shown) [Compound 12b] , the value recorded as its D4 % Maxm Stim is 85.15

Please fill in: D4 % Maxm Stim reported for O=C(NCCN(CCCCN1CCN(c2ccccc2)CC1)C1CCc2ccc(O)cc2C1)c1ccccc1 (stereo not shown) [Compound 10b] = 71.36

###

- target_under_test: D3 receptor (Homo sapiens, UniProt P35462)
- protocol_details: Agonist potency by [3H]thymidine incorporation (mitogenesis), D3
- Assay type: cell-based
- Design: expressed in transfected cells; host or cells: CHOp-D3 cells
- condition_parameters: [3H]thymidine incorporation; >80% full agonist; read-out: D3 % Maxm Stim
Entries annotated with measured Emax
I only need the number, in %, no unit after it.

See these solved cases before continuing.
| compound | Emax, % |
| --- | --- |
| C#CCN(CCCCN1CCN(c2cccc(Cl)c2Cl)CC1)C1CCc2ccc(O)cc2C1 (centres unmarked) [Compound 19b] | 90.3 |
| N#CCCCN(CCCCN1CCN(c2ccccc2)CC1)C1CCc2ccc(O)cc2C1 (centres unmarked) | 67.1 |
| CCCN(CCCCN1CCN(c2cccc(Cl)c2Cl)CC1)C1CCc2ccc(O)cc2C1 (centres unmarked) [Compound 19a] | 85.7 |

Input C#CCN(CCN1CCN(c2ccccc2)CC1)C1CCc2ccc(O)cc2C1 (centres unmarked) [Compound 12a] . Output Emax: 94.5

Just so you know, measured Emax for CCCN(CCCCN1CCN(c2ccccc2)CC1)C1CCc2ccc(O)cc2C1 (centres unmarked) [Compound 15b] came out at 74.9

Consider O=C(NCCN(CCCCN1CCN(c2ccccc2)CC1)C1CCc2ccc(O)cc2C1)c1ccccc1 (centres unmarked) [Compound 10b] . Its measured Emax is 50.9

Per the records, this compound ( CCCN(CCN1CCN(c2ccccc2)CC1)C1CCc2ccc(O)cc2C1 (centres unmarked) [Compound 15a] ) has Emax equal to 84.6

For record O=C(NCCCCN(CCCCN1CCN(c2ccccc2)CC1)C1CCc2ccc(O)cc2C1)c1ccccc1 (centres unmarked) [Compound 10a] the listed Emax is 44.1
